Biological target: Butyrylcholinesterase (Rattus norvegicus)
Sequence (Q9JKC1 whole entry): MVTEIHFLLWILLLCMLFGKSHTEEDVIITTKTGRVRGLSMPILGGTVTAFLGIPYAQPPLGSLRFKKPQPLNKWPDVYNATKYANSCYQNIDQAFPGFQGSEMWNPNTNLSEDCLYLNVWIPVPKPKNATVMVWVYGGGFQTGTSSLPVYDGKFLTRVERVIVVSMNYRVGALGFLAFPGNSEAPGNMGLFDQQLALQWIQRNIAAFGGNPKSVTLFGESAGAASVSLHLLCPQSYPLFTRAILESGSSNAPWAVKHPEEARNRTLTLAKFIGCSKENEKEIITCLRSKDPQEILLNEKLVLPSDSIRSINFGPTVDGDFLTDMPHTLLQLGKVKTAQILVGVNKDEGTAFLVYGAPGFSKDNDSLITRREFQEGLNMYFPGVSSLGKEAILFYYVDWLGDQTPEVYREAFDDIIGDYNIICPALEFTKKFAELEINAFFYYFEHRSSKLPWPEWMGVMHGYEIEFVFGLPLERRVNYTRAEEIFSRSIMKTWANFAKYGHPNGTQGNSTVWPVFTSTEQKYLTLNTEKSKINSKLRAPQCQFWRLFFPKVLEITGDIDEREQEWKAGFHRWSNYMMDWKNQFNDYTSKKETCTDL
# strict inequality: IC50 < 7 µM yields Met, everything else yields Not met

Some solved entries appear below for comparison.
INSERT INTO results (compound, class_label) VALUES
  ('O=C(CNc1c2c(nc3ccccc13)CCCC2)NCCC1CCN(c2ccccc2)CC1', 'Met'),
  ('O=C(CNC1c2ccccc2-c2[nH]c3ccccc3c21)NCCC1CCN(Cc2ccccc2)CC1 (stereo not given)', 'Not met'),
  ('COc1ccc(C(=O)NCC(=O)NCCC2CCN(Cc3ccccc3)CC2)cc1OC', 'Not met');

Now for another entry.
Query block: Take the compound `O=C(CNc1c2c(nc3ccccc13)CCCC2)NCC1CCN(c2ccccc2)CC1` and say whether its IC50 is less than 7 µM.
Result block: Met
